Reference source for all entries: PubChem BioAssay AID1851

biological target: Cytochrome P450 2C9 (Homo sapiens); assay: Cytochrome panel assay with activity outcomes; conditions: recombinant CYP, pro-luciferin dealkylation, luminescence, p450-cyp2c9; series mostly up to 57.1 µM
About 4,000 (25%) of roughly 16,000 compounds were called active. Not shown: some 26% with an inconclusive outcome. Calls follow the shape of the dose curve; as a rule, active = well fitted curve in the direction sought with a large enough effect; inconclusive = small, poorly fitted or top-dose-only effect, or effect the other way; inactive = no such curve, though single readings can be large or run the other way. The list is a sample of the results.
Bench note: report the call from active, inactive

- molecule: "O=c1n(CCCN2CCN(c3cccc(Cl)c3)CC2)nc2ccccn12"
  target: "Cytochrome P450 2C9 (Homo sapiens)"
  class: "inactive"
- molecule: "C[n+]1ccc(/C=C/c2ccc(Br)cc2)cc1"
  target: "Cytochrome P450 2C9 (Homo sapiens)"
  class: "inactive"
- molecule: "CCCn1c(-c2ccccc2)nc2c(=O)n(C)c(=O)[nH]c21"
  target: "Cytochrome P450 2C9 (Homo sapiens)"
  class: "active"
- molecule: "N#Cc1ccc(CN2CCC3(CC2)CCN(C(=O)c2cc(C(F)(F)F)cc(C(F)(F)F)c2)CC3)cc1"
  target: "Cytochrome P450 2C9 (Homo sapiens)"
  class: "inactive"
- molecule: "COc1ccc(C(=O)N2CCC3(CC2)CN(C(=O)Nc2cccc(C#N)c2)C3)cc1"
  target: "Cytochrome P450 2C9 (Homo sapiens)"
  class: "inactive"
- molecule: "Cc1[nH]c2ccccc2c1C(c1ccccn1)N1CCC(C)CC1 (stereo unspecified)"
  target: "Cytochrome P450 2C9 (Homo sapiens)"
  class: "inactive"
- molecule: "O=C(Nc1ccc(Br)cc1)C1CCC(=O)N1Cc1ccccc1Cl (stereo unspecified)"
  target: "Cytochrome P450 2C9 (Homo sapiens)"
  class: "active"
- molecule: "O=C1c2ccccc2CCC12N=NCC2c1ccc(Cl)cc1 (stereo unspecified)"
  target: "Cytochrome P450 2C9 (Homo sapiens)"
  class: "active"

Request: Outcome logged for "C[C@@H](N)C(=O)O" in this assay:
Response: inactive

Request: Outcome logged for "O=C(CSc1nc2nc(-c3cccs3)cc(C(F)(F)F)c2c(=O)[nH]1)NCc1ccco1" in this assay:
Response: active

Request: Outcome logged for "O=C(NCCCN1CCCC1=O)Nc1ccc(F)c(Cl)c1" in this assay:
Response: inactive

---

Target: Cytochrome P450 2C9 (Homo sapiens) (UniProt P11712)
Sequence (P11712 whole entry, looked up): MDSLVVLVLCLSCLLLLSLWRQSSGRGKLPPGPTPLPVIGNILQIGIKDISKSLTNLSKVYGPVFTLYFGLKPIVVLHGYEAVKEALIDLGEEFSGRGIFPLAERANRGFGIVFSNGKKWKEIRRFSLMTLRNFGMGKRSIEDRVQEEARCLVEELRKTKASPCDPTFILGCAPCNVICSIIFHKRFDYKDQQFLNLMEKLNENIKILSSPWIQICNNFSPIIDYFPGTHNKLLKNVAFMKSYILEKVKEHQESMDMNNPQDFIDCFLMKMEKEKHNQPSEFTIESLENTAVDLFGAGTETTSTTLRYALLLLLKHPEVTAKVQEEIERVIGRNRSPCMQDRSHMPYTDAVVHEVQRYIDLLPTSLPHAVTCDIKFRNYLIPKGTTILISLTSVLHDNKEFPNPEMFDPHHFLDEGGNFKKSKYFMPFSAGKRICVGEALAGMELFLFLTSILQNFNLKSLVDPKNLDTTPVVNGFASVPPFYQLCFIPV
Experiment: Cytochrome panel assay with activity outcomes; as to activity, negative = inhibition: % is scaled to controls: 0 for no effect and ±100 for the full control effect
Settings: recombinant CYP, pro-luciferin dealkylation, luminescence, p450-cyp2c9; series mostly up to 57.1 µM
Protocol: The P450 gene superfamily is involved in the metabolism and clearance of xenobiotics. This assay used various human CYP P450 isozymes to measure the dealkylation of various pro-luciferin substrates to luciferin. The luciferin is then measured by luminescence after the addition of a luciferase detection reagent. […] Inhibitors and some substrates limit the production of luciferin, and decrease measured luminescence. […] 8, Detection, 1 sec, ViewLux luminescent read […]
Screen size: about 16,000 compounds; about 4,000 (25%) were called active. Another 26% or so got no clear call; they are omitted. A selection follows.
endpoint: activity, negative = inhibition

Study these solved cases before continuing.
- line_notation: "Cc1cnc(CNc2ccnc(-c3cccc(NS(C)(=O)=O)c3)n2)cn1"
  activity, negative = inhibition: "16.8% [at 2.29 µM] (inactive)"
- line_notation: "Cc1cccc(CNc2cc(-c3ccc(C(=O)N(C)C)cc3)ncn2)c1"
  activity, negative = inhibition: "5.16% [at 2.29 µM] (inactive)"

Request: Record request: activity, negative = inhibition value, item "N[C@H](C(=O)O)[C@@H](O)c1cnc[nH]1"
Response: 20.3% [at 11.4 µM] (inactive)
